# key: entry, value: melting point
Quick note: give the figure in °C, leave out the unit.

The examples below pair each entry with its known result.
In [3]: df
Out[3]:
                               smiles_entry  property_label  measured_value
0     N#Cc1ncn2c(C(F)(F)F)cc(-c3ccncc3)nc12   melting point             254
1  N#Cc1ncn2c(C(F)(F)F)cc(-c3ccc(Cl)c(Cl)c3)nc12   melting point             219
2  Cc1cc(-c2cc(C(F)(F)F)n3ncc(-c4ccccn4)c3n2)ccc1Cl   melting point             183
3  Cc1cc(-c2cnn3c(C(F)(F)F)cc(-c4ccc(C(F)(F)F)c(C)c4)nc23)cc(C)n1   melting point             253

Exam item: Look up melting point: N#Cc1cnn2c(C(F)(F)F)cc(-c3cccc(Cl)c3)nc12
Marked response: 204

---

Notes on pKi obtained with rat mGlu2 receptor (Rattus norvegicus).
Sequence (P31421 19-872): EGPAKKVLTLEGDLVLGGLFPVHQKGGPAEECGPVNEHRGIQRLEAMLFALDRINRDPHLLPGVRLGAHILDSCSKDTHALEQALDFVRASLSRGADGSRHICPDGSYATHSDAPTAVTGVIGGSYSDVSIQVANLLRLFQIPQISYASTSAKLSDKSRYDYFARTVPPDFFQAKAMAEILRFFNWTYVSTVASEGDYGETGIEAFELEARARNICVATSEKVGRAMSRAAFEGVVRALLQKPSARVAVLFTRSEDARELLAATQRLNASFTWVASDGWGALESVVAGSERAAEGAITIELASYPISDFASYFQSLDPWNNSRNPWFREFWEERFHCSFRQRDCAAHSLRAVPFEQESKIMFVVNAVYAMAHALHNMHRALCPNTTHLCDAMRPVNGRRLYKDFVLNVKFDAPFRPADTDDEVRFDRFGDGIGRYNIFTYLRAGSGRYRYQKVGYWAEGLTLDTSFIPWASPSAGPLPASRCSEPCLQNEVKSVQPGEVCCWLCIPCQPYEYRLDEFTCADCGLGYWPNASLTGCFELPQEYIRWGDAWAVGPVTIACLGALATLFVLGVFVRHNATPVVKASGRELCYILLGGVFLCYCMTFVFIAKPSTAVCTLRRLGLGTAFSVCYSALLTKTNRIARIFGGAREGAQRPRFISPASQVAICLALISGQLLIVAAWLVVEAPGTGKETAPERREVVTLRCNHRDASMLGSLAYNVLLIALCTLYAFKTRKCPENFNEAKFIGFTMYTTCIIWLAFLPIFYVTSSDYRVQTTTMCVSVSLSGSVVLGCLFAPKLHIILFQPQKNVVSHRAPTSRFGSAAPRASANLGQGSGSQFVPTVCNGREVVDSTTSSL
Note: pKi values are expressed as the negative base-10 logarithm of concentration in M.

Field: example entries. Status: answers known.
>>> df
                               smiles_entry  property_label  measured_value
0  Cc1cc(-c2cnn3c(C(F)(F)F)cc(-c4ccc(C(F)(F)F)c(F)c4)nc23)ccn1             pKi            7.35
1  N#Cc1c(-c2ccc(OCC(F)(F)F)c(C(F)(F)F)c2)nn2c(C(F)(F)F)ccnc12             pKi            7.49
2  Cc1nn2c(C(F)(F)F)cc(-c3cccc(C(F)(F)F)c3)nc2c1C#N             pKi            7.14
3  Cc1cc(-c2cc(C(F)(F)F)n3ncc(-c4cc[n+]([O-])c(C)c4)c3n2)ccc1Cl             pKi            7.36
4  Cc1cc(-c2cc(C(F)(F)F)n3nc(CC#N)c(C#N)c3n2)ccc1Cl             pKi            7.12
5  FC(F)(F)c1cc(-c2ccc(Cl)c(Cl)c2)nc2c(-c3cccnc3)cnn12             pKi            7.33

Attention now turns to another entry.
Exam item: Looking for the measured pKi of Cc1cc(-c2cnn3c(C(F)(F)F)cc(-c4cccc(C(F)(F)F)c4)nc23)cc(C)n1 , can you help?
Marked response: 7.37

---

Property Label: melting point (°C)
Use °C as the unit, but write only the number.

Answered examples (5):
                               smiles_entry  measured_value
0  Cc1ccc(-c2cc(C(F)(F)F)n3cnc(C#N)c3n2)cc1             197
1  Cc1ccc(-c2cc(C(F)(F)F)n3cnc(C#N)c3n2)cc1C(F)(F)F             220
2  FC(F)(F)c1cccc(-c2cc(C(F)(F)F)n3cnc(-c4ccncc4)c3n2)c1             258
3  Cc1cc(-c2cnn3c(C(F)(F)F)cc(-c4ccc(C(F)(F)F)c(OCC(F)(F)F)c4)nc23)ccn1             201
4  Cc1cc(-c2cnn3c(C(F)(F)F)cc(-c4ccc(Cl)c(Cl)c4)nc23)cc(C)n1             281

Exam item: Name the reported melting point value associated with the compound Cc1cc(-c2cnn3c(C(F)(F)F)cc(-c4ccc(OCC(F)(F)F)c(C(F)(F)F)c4)nc23)cc(C)n1
Marked response: 229

Exam item: Value lookup for melting point; key = Cc1nn2c(C(F)(F)F)cc(-c3ccc(C(F)(F)F)cc3)nc2c1C#N
Marked response: 184

Exam item: Could you tell me which melting point is on file for Cc1cccc(-c2cc(C(F)(F)F)n3cnc(C#N)c3n2)c1 ?
Marked response: 202

Exam item: Need melting point of N#Cc1ncn2c(C(F)(F)F)cc(-c3ccccc3Cl)nc12 , thanks.
Marked response: 180

Exam item: Look at this compound and give its reported melting point. FC(F)(F)c1ccc(-c2cc(C(F)(F)F)n3cnc(-c4ccncc4)c3n2)cc1
Marked response: 240

Exam item: Which melting point is reported for this compound? FC(F)(F)c1cc(-c2ccc(Cl)cc2)nc2c(-c3cccnc3)cnn12
Marked response: 188

Exam item: I would be grateful if you could share the reported melting point for N#Cc1ncn2c(C(F)(F)F)cc(-c3ccc(Cl)cc3Cl)nc12 .
Marked response: 139

Exam item: For the compound shown here, FC(F)(F)c1ccc(-c2cc(C(F)(F)F)n3cnc(-c4ccncc4)c3n2)cc1C(F)(F)F , give the reported melting point.
Marked response: 211
